target_or_system: ENL YEATS domain (association with H3K27cr) (Homo sapiens, UniProt Q03111)
Sequence (Q03111 1-148): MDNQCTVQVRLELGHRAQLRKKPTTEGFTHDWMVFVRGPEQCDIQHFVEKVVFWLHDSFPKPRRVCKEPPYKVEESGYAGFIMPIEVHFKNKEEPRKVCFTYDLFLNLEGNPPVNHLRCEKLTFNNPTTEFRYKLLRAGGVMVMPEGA
protocol_details: biochemical
condition_details: ENL (YEATS)-H3K27cr HTRF (IC50, μM), Table 1
observed_property: IC50

Use these answered entries as a reference point.
CC(C)(C)C1CC(NC(=O)c2ccc3nc(-c4ccccc4)cn3c2)C1 (stereo not drawn) [Compound 120]: > 50 µM
O=C(NC1(c2ccccc2)CCC1)c1ccc2nc(-c3ccccc3)cn2c1 [Compound 83]: > 50 µM

Qu. Sample CC1(NC(=O)c2ccc3nc(-c4ccccc4)cn3c2)CCC1 [Compound 73] — what was its IC50?
Ans. > 50 µM
